Values were extracted from patent US8044035B2.

# protocol-text: Phase solubility studies of Compound I with cyclodextrins (excess compound, 7 days, 37° C., HPLC)
# Assay type: physicochemical
# test-parameters: cyclodextrin solution, 37 °C, aqueous with cosolvent or surfactant or cyclodextrin, thermodynamic from solid, HPβCD 150 mM; 37° C., 7 days; read-out: Concentration of Compound I (solubility)
readout-label: solubility at 7 days

Report solubility at 7 days for O=C1NC(=O)C(c2ccc(-c3ccccc3)cc2)(N2CCN(c3ccc([N+](=O)[O-])cc3)CC2)C(=O)N1 [Compound I] please.
3110 µg/mL

----------
# protocol-text: Solubility of various trioxopyrimidines in the presence of HPβCD
# Type: physicochemical
# test-parameters: HPβCD solution, 37 °C, aqueous with cosolvent or surfactant or cyclodextrin, thermodynamic from solid, HPβCD 10 mM; read-out: Concentration (solubility)
As shown below, each of these molecules has a reported solubility value.
Number first, unit second.

Some molecules with known solubility results, for comparison:
entry-smiles: O=C1NC(=O)C(c2ccc(Oc3ccc(Cl)cc3)cc2)(N2CCN(c3ncccn3)CC2)C(=O)N1
readout-label: solubility
observed-value: 800 µg/mL
//
entry-smiles: O=C1NC(=O)C(c2ccc(Oc3ccccc3)cc2)(N2CCN(c3ncccn3)CC2)C(=O)N1
readout-label: solubility
observed-value: 1300 µg/mL
//
entry-smiles: O=C1NC(=O)C(c2ccc(Oc3ccc(Br)cc3)cc2)(N2CCN(c3ncccn3)CC2)C(=O)N1
readout-label: solubility
observed-value: 800 µg/mL

Attention now shifts to the item below.
Report solubility for `O=C1NC(=O)C(c2ccc(Oc3ccc(Cl)c(Cl)c3)cc2)(N2CCN(c3ncccn3)CC2)C(=O)N1` please.
100 µg/mL

----------
# protocol-text: Phase solubility studies of Compound I with cyclodextrins (excess compound, 7 days, 37° C., HPLC)
# Format: physicochemical
# test-parameters: γCD solution, 37 °C, aqueous with cosolvent or surfactant or cyclodextrin, thermodynamic from solid, γCD 25 mM; 37° C., 7 days; read-out: Concentration of Compound I (solubility)
readout-label: solubility at 7 days (µg/mL)
Express the result in µg/mL but write the number alone.

Report solubility at 7 days for O=C1NC(=O)C(c2ccc(-c3ccccc3)cc2)(N2CCN(c3ccc([N+](=O)[O-])cc3)CC2)C(=O)N1 [Compound I] please.
3.2
